test: The EC50 was calculated as the concentration of drug that increased the percentage of formazan production in drug treated, virus infected cells to 50% of that produced by drug free uninfected cells on serotype 2.
outcomeMeasure: EC50 (nM)
# output: bare number, implied unit nM

Task: What value of EC50 has been reported for the following molecule? "CCOC(=O)/C=C/[C@H](CCC(N)=O)NC(=O)[C@H](Cc1ccccc1)NC(=O)[C@H](CC(C)C)NC(=O)OCc1ccccc1"
Result: 1600

###

test: Increased percentage of formazan production in drug treated virus infected cells to equal 50% control drug free uninfected cells on serotype 14
outcomeMeasure: EC50 (nM)
# output: bare number, implied unit nM

Task: What value of EC50 has been reported for the following compound? CCOC(=O)/C=C/[C@H](C[C@@H]1CCNC1=O)NC(=O)[C@H](Cc1ccc(F)cc1)NC(=O)[C@@H](NC(=O)c1cc(C)on1)C(C)C [AG7088 analogue 2a]
Result: 10

Task: Next up: "CCOC(=O)/C=C/[C@H](CCC(=O)N(C)C)NC(=O)[C@H](Cc1ccccc1)NC(=O)[C@H](CC(C)C)NC(=O)OCc1ccccc1"
Result: 4000

Task: Next up: "CCOC(=O)/C=C/[C@H](CCC(=O)NC)NC(=O)[C@H](Cc1ccccc1)NC(=O)[C@H](CC(C)C)NC(=O)OCc1ccccc1"
Result: 5600

Task: Next up: "CCOC(=O)/C=C/[C@H](C[C@@H]1CCCNC1=O)NC(=O)[C@@H](CC(=O)[C@@H](NC(=O)c1cc(C)on1)C(C)C)Cc1ccc(F)cc1"
Result: 1

Task: Next up: "CCOC(=O)/C=C/[C@H](CN1CCNC1=O)NC(=O)[C@H](Cc1ccccc1)NC(=O)[C@H](CC(C)C)NC(=O)OCc1ccccc1"
Result: 600

Task: Next up: "CCOC(=O)/C=C/[C@H](C[C@@H]1CCCNC1=O)NC(=O)[C@H](Cc1ccccc1)NC(=O)[C@H](CC(C)C)NC(=O)OCc1ccccc1"
Result: 30

Task: Next up: "CCOC(=O)/C=C/[C@H](C[C@@H]1CCNC1=O)NC(=O)[C@H](Cc1ccc(F)cc1)NC(=O)[C@@H](NC(=O)c1cc(C)on1)C(C)(C)C"
Result: 10

Task: Next up: "CCOC(=O)/C=C/[C@H](C[C@@H]1CCCNC1=O)NC(=O)[C@H](Cc1ccc(F)cc1)NC(=O)[C@@H](NC(=O)c1cc(C)on1)C(C)C"
Result: 20

Task: Next up: "CCOC(=O)/C=C/[C@H](C[C@@H]1CCNC1=O)NC(=O)[C@H](Cc1ccccc1)NC(=O)[C@@H](NC(=O)OCc1ccccc1)C(C)C"
Result: 30

Just for reference, BindingDB's records for doi:10.1021/jm9805384 is where these values come from.
